# System: MDA-MB-231 breast
# Test method notes: NCI-60 one-dose screen, 48 h
# Conditions: 10 µM
# Protocol: Cells are grown in 96 well plates and exposed to the test compound for 48 hours. Compounds are tested at a single concentration, which is 10^-5 M for most compounds. The reported endpoint is percent growth (GI% or GIPRCNT), where numbers from 0 - 100% represent growth inhibition, and numbers from -100% - 0 represent cell death. For example, a value of 40 represents 60% growth inhibition. A value of 0 means no net growth occurred over the course of the experiment. […]
About 83,000 compounds went through this panel and 20% of them were active in at least one assay; those are over-represented in the sample as a whole. Active and inactive are the calls of the source. Rule for the calls: active = growth percent below 10; inactive = the rest.
Allowed answers: true (1) for active, false (0) for inactive

Fill in: this test's call for CCOC(=O)C(NC(=O)C(Cl)Cl)C(O)c1ccccc1 (stereo not drawn) is ___ false (0)

Fill in: this test's call for "O=S(=O)(Nc1ccccn1)c1ccc(N=Nc2ccc(O)c3ncccc23)cc1" is ___ true (1)

Shift focus to the following entry.
Fill in: this test's call for CC[C@H](C)C(=O)O[C@H]1CCC=C2C=C[C@H](C)C(CCC3C[C@@H](O)CC(=O)O3)[C@H]21 (stereo partly drawn) is ___ true (1)
